The measured values listed here are drawn from ChEMBL document CHEMBL4689842.

List of Population Pyknosed Nuclei (%) values.
Test system: U2OS
EXPERIMENTAL_DETAILS: Multiplex assay against U2OS
Format: toxicity, cell-based
EXPERIMENTAL_SETUP: human, 12 h, 10 µM, compound concentration 10 uM, replicate 1

Example cases with answers are listed next.
| COMPOUND | Population Pyknosed Nuclei (%) |
| --- | --- |
| O=C(Nc1ccc(-c2ccnc(Nc3ccc(N4CCOCC4)cc3)n2)cc1)[C@@H]1CCCN1 | 20% |
| COc1ccc(S(=O)(=O)N(CCO)c2ccccc2CN(C)C/C=C/c2ccc(Cl)cc2)cc1.O=P(O)(O)O | 7% |
| CNc1cc(Oc2cc(C(=O)Nc3cc(N4CCN(C)CC4)cc(C(F)(F)F)c3)ccc2C)ncn1 | 48% |
| Cn1nc(C(=O)NCc2ccc(C(=O)O)cc2)cc1-c1ccc2[nH]ccc2c1 [BI 4395] | 8% |
| CCN1CCN(Cc2ccc(Nc3ncc(F)c(-c4cc(F)c5nc(C)n(C(C)C)c5c4)n3)nc2)CC1.CS(=O)(=O)O | 35% |
| C=CCn1c(=O)c2cnc(Nc3ccc(N4CCN(C)CC4)cc3)nc2n1-c1cccc(C(C)(C)O)n1 [ADAVOSERTIB] | 60% |
| O=C(Nc1cccnn1)N1CCC(=Cc2cccc(Oc3ccc(C(F)(F)F)cn3)c2)CC1 | 3% |
| O=C1N/C(=N/c2ccccc2F)S/C1=C\c1ccc(C(=O)O)cc1 | 8% |

Ask: Look up Population Pyknosed Nuclei (%) of S=C(NCCCc1c[nH]cn1)NCCCN(Cc1ccc(Cl)c(Cl)c1)c1ccc(Br)cn1 and report it.
Reply: 48%

Ask: Look up Population Pyknosed Nuclei (%) of Cl.Oc1ccc2c3c1O[C@H]1c4[nH]c5c(c4C[C@@]4(O)[C@@H](C2)N(CC2CC2)CC[C@]314)C[C@@]1(O)[C@H]2Cc3ccc(O)c4c3[C@@]1(CCN2CC1CC1)[C@H]5O4 and report it.
Reply: 12%

Ask: Look up Population Pyknosed Nuclei (%) of Cc1cn(-c2cc(NC(=O)c3ccc(C)c(Nc4nccc(-c5cccnc5)n4)c3)cc(C(F)(F)F)c2)cn1 [NILOTINIB] and report it.
Reply: 33%

Ask: Look up Population Pyknosed Nuclei (%) of CCn1cc(-c2ccnc3[nH]c(-c4cccc(CN(C)C)c4)cc23)c(-c2ccc(NC(=O)N(C)C)cc2)n1 [GSK-1070916] and report it.
Reply: 24%

---

Tested on: U2OS
EXPERIMENTAL_DETAILS: Multiplex assay against U2OS
Type: toxicity, cell-based
EXPERIMENTAL_SETUP: human, 12 h, 10 µM, compound concentration 10 uM, replicate 1
List of Population Pyknosed Nuclei (%) values.
Give the quantity in %, number only.

| COMPOUND | Population Pyknosed Nuclei (%) |
| --- | --- |
| O=C(Cc1ccc(-c2ccc(OCCN3CCOCC3)cc2)cn1)NCc1ccccc1 | 16 |

Ask: Fill: Population Pyknosed Nuclei (%) (U2OS) for this compound CN1C2CCC1CC(OC(c1ccc(F)cc1)c1ccc(F)cc1)C2.Cl (stereo not given)
Reply: 15

Ask: Fill: Population Pyknosed Nuclei (%) (U2OS) for this compound Cl.O=c1c2cccn2c2ccccc2n1CCCN1CCC(c2ccc(Cl)cc2)CC1
Reply: 20

Ask: Fill: Population Pyknosed Nuclei (%) (U2OS) for this compound COCC(=O)NC/C=C/c1ccc2ncnc(Nc3ccc(Oc4ccc(C)nc4)c(C)c3)c2c1
Reply: 20

Ask: Fill: Population Pyknosed Nuclei (%) (U2OS) for this compound O=C1NC(=O)C(c2cnc3ccccn23)=C1c1cn2c3c(cc(F)cc13)CN(C(=O)N1CCCCC1)CC2
Reply: 13

---

System: HEK-293T
EXPERIMENTAL_DETAILS: Multiplex assay against HEK293T
Assay type: toxicity, cell-based
EXPERIMENTAL_SETUP: human, 24 h, 1 µM, compound concentration 1 uM, replicate 2
Classification scheme (Population Pyknosed Nuclei (%)): LOW = under 5%, MID = from 5% up to 40%, HIGH = 40% and over

Previously resolved entries follow.
| COMPOUND | ASSAY_TARGET | CATEGORY_LABEL |
| --- | --- | --- |
| COC(=N)c1nc2ccc3ncnc(Nc4ccc(OC)cc4F)c3c2s1 | HEK-293T | LOW |
| COc1cc2ncnc(Nc3ccc(F)c(Cl)c3)c2cc1NC(=O)/C=C/CN1CCCCC1 [DACOMITINIB ANHYDROUS] | HEK-293T | LOW |
| CCOc1cc(C(=O)N2CCC(N3CCN(C)CC3)CC2)ccc1Nc1ncc2c(n1)N(C1CCCC1)c1ccccc1C(=O)N2C | HEK-293T | HIGH |
| CCCS(=O)(=O)Nc1ccc(F)c(C(=O)c2c[nH]c3ncc(Cl)cc23)c1F | HEK-293T | LOW |
| CN1C2CCC1CC(OC(c1ccc(F)cc1)c1ccc(F)cc1)C2.Cl (stereo not given) | HEK-293T | HIGH |

Ask: # bin lookup: classify CN(C)C(=O)C(CCN1CCC(O)(c2ccc(Cl)cc2)CC1)(c1ccccc1)c1ccccc1.Cl [LOPERAMIDE HYDROCHLORIDE] by its Population Pyknosed Nuclei (%)
Reply: HIGH

Ask: # bin lookup: classify CCOc1cc2ncc(C#N)c(Nc3ccc(OCc4ccccn4)c(Cl)c3)c2cc1NC(=O)/C=C/CN(C)C by its Population Pyknosed Nuclei (%)
Reply: MID

Ask: # bin lookup: classify CCN1CCN(c2ccc(Nc3cc(N(C)C(=O)Nc4c(Cl)c(OC)cc(OC)c4Cl)ncn3)cc2)CC1 by its Population Pyknosed Nuclei (%)
Reply: MID

Ask: # bin lookup: classify CCc1cccc(CC)c1NC(=O)c1nn(C)c2c1CCc1cnc(Nc3ccc(C(=O)NC4CCN(C)CC4)cc3OC(F)(F)F)nc1-2 by its Population Pyknosed Nuclei (%)
Reply: MID

Ask: # bin lookup: classify C=C1/C(=C\C=C2/CCC[C@]3(C)[C@@H]([C@H](C)/C=C/[C@H](C)C(C)C)CC[C@@H]23)C[C@@H](O)C[C@@H]1O by its Population Pyknosed Nuclei (%)
Reply: MID

Ask: # bin lookup: classify C=CCn1c(=O)c2cnc(Nc3ccc(N4CCN(C)CC4)cc3)nc2n1-c1cccc(C(C)(C)O)n1 by its Population Pyknosed Nuclei (%)
Reply: MID

Ask: # bin lookup: classify CCn1c(=O)c(-c2ccc(-c3cncs3)cc2Cl)cc2cnc(Nc3ccc(N4CCN(C)CC4)cc3)nc21 by its Population Pyknosed Nuclei (%)
Reply: MID

---

Test system: Fibroblast
EXPERIMENTAL_DETAILS: Multiplex assay against human fibroblast
Type: toxicity, cell-based
EXPERIMENTAL_SETUP: 12 h, 1 µM, compound concentration 1 uM, replicate 1
List of Population Hoechst High Intensity Objects (%) values.
Give the quantity in %, number only.

Example cases with answers are listed next.
| SMI | UNIT_SPEC | MEAS_VALUE |
| --- | --- | --- |
| O=C(Nc1ccc(-n2nc(-c3cccnc3)cc2C(F)(F)F)cn1)c1ccc(-c2ccccc2)c(F)c1 | % | 10 |
| O=C1N/C(=N/c2ccccc2F)S/C1=C\c1ccc(C(=O)O)cc1 | % | 13 |
| COc1ccc(S(=O)(=O)N(CCO)c2ccccc2CN(C)C/C=C/c2ccc(Cl)cc2)cc1.O=P(O)(O)O | % | 16 |
| CCCn1c(=O)c2[nH]c(-c3cnn(Cc4cccc(C(F)(F)F)c4)c3)nc2n(CC)c1=O | % | 11 |
| CCNc1cc(N[C@H]2CC[C@H](O)CC2)nc(Nc2ccc3c(ccn3Cc3ccccc3)c2)n1 | % | 20 |

Ask: Look up Population Hoechst High Intensity Objects (%) of O=C1NC(=O)C(c2cnc3ccccn23)=C1c1cn2c3c(cc(F)cc13)CN(C(=O)N1CCCCC1)CC2 and report it.
Reply: 11

Ask: Look up Population Hoechst High Intensity Objects (%) of CCc1cccc(CC)c1NC(=O)c1nn(C)c2c1CCc1cnc(Nc3ccc(C(=O)NC4CCN(C)CC4)cc3OC(F)(F)F)nc1-2 and report it.
Reply: 7

Ask: Look up Population Hoechst High Intensity Objects (%) of CN1CCN(C(=O)C(C)(C)c2ccc(C(=O)Nc3cn4cc(-c5cc(C(C)(C)C)cc(C(C)(C)C)c5)ccc4n3)cc2)CC1 and report it.
Reply: 19

---

Tested on: Fibroblast
EXPERIMENTAL_DETAILS: Incucyte cell viability with human fibroblast; note: filed as whole numbers so only -1 and 0 and 1 occur
Format: toxicity, cell-based
EXPERIMENTAL_SETUP: 24 h, 10 µM, compound concentration 10 uM, replicate number 2, timepoint 24 hours
READOUT_KIND: Growth Rate

Example cases with answers are listed next.
| COMPOUND | READOUT_KIND | MEAS_VALUE |
| --- | --- | --- |
| CN1CCN(c2cnc3c(C4CCN(C(=O)c5ccc(OC(F)(F)F)cc5N)CC4)ncnc3c2)CC1 | Growth Rate | 1 |
| O=C1NC(c2ccccn2)Sc2ccccc21 (stereo not drawn) | Growth Rate | 1 |
| CC(C)(Sc1ccc(CCN(CCCCC2CCCCC2)C(=O)NC2CCCCC2)cc1)C(=O)O | Growth Rate | 1 |
| FC(F)(F)c1cccc(-c2noc(-c3cc(-c4ccccc4)c(C(F)(F)F)s3)n2)c1 | Growth Rate | 0 |
| Cc1cnc(Nc2ccc(F)cc2Cl)nc1-c1c[nH]c(C(=O)N[C@H](CO)c2cccc(Cl)c2)c1 | Growth Rate | 1 |

Ask: Look up Growth Rate of CS(=O)(=O)NCC[C@H](NC(=O)c1cncc2c1cnn2-c1ccc(F)cc1)c1ccnc(S(C)(=O)=O)c1 and report it.
Reply: 0

Ask: Look up Growth Rate of CN([C@@H](Cc1ccc(OS(=O)(=O)c2cccc3cnccc23)cc1)C(=O)N1CCN(c2ccccc2)CC1)S(=O)(=O)c1cccc2cnccc12 and report it.
Reply: 1

Ask: Look up Growth Rate of COCC(=O)NC/C=C/c1ccc2ncnc(Nc3ccc(Oc4ccc(C)nc4)c(C)c3)c2c1 and report it.
Reply: 0
